# polymerase ribozyme fitness (log ratio) annotations
B1: TPR 5TU (parent)
chain: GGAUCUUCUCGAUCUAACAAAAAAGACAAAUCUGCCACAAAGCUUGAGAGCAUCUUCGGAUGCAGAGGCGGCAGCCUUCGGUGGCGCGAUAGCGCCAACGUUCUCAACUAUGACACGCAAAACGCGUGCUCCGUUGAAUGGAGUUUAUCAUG

- Variants of: B1
- ASSAY_TEXT: polymerase ribozyme fitness, log enrichment relative to wild type (log ratio); higher = more active; in vitro selection for triplet polymerase activity
Fewer inactive variants are shown than the library holds.
API doc: respond with a numeric literal and nothing else, no unit.

See these solved cases before continuing.
1. G80A A91C G94A    -4.16
2. U4G U53A C85U G133C    -2.45
3. U53A A73U    -2.21
4. C10A C85U    -4.01
5. G84C G117C    -1.73
6. C5U U13C C95U U146G    -1.13

Looking up U56A U61A C96U U101A , I see its polymerase ribozyme fitness (log ratio) listed as -1.95

Looking up C14G A49G , I see its polymerase ribozyme fitness (log ratio) listed as -2.92

Looking up C5U C51A G58A G81C , I see its polymerase ribozyme fitness (log ratio) listed as -1.81

Looking up U13A C57G C96A , I see its polymerase ribozyme fitness (log ratio) listed as -1.81
